src = paper PMC6856977

- system-name: hTRPA1 (Homo sapiens)
- protocol: whole-cell patch clamp, evoked inward current
recorded-endpoint: pEC50
pEC50 field: float, defined as -log10 of concentration (mol/L).

*Q* Please give the documented pEC50 of CCOC(=O)c1cncn1[C@H](C)c1ccccc1 [etomidate]
*A* 4.14

====

- system-name: hTRPA1 (Homo sapiens, UniProt O75762, C621S/C641S/C665S)
- Sequence (O75762 whole entry C621S/C641S/C665S): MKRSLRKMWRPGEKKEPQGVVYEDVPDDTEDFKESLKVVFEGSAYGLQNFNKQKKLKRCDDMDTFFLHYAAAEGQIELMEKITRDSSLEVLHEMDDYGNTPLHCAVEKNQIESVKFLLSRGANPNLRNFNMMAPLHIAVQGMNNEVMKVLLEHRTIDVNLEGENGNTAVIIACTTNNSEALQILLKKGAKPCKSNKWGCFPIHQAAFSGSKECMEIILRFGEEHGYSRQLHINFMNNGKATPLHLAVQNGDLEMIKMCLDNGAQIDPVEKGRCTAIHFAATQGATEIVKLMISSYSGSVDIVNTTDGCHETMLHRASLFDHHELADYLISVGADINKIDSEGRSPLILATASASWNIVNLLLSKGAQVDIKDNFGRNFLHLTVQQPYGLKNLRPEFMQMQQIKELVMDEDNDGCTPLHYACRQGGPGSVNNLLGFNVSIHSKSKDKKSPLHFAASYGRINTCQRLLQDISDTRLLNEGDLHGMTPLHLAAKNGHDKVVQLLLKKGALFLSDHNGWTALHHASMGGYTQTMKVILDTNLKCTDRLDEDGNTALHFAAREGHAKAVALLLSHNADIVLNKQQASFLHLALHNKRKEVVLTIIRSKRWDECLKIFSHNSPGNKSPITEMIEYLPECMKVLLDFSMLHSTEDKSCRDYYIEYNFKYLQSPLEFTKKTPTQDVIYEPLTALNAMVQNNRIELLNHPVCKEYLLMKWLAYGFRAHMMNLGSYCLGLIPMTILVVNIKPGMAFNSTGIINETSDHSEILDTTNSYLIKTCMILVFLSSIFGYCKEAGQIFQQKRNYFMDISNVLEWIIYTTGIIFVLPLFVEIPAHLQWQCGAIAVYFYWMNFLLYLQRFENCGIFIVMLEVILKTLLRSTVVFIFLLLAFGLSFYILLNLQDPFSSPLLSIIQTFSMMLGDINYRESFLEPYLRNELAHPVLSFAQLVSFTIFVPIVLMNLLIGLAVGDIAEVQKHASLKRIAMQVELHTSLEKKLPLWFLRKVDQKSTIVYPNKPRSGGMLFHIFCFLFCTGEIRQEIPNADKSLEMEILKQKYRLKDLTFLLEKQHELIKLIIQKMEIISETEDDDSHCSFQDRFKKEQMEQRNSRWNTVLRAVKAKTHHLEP
- protocol: whole-cell patch clamp, evoked inward current
- Assay type: cell-based
recorded-endpoint: EC50

*Q* Look up EC50 of CCOC(=O)c1cncn1[C@H](C)c1ccccc1 [etomidate] and report it.
*A* ~1.39 mM
